# credit: patent US4894385A

# IC50 listing for each entry below
Target: TXA2 synthetase (Homo sapiens, UniProt P24557)
Construct: The platelet microsome fraction was separated from rabbit and from human blood
Sequence (P24557 whole entry): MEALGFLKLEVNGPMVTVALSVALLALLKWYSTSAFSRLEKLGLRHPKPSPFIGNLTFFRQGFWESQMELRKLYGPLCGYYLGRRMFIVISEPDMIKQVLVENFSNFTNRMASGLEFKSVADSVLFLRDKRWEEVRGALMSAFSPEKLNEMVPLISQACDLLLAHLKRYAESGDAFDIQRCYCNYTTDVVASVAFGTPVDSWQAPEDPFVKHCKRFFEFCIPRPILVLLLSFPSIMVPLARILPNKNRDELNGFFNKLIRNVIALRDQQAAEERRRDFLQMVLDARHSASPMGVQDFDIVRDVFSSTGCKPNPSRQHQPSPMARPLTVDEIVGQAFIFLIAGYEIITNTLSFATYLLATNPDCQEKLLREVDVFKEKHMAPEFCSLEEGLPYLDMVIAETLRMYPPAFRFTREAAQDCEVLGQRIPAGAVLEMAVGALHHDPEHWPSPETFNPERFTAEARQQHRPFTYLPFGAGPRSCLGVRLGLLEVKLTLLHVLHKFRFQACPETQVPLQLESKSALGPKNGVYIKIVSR
Assay: Inhibition of Thromboxane A2 Synthetase (human platelet microsomes)
Settings: 0.1 mM [14C] arachidonic acid, 1 minute, 22° C., compounds as hydrochloride
Structures can show the parent of a compound that is named as a salt.
Give the value in nM but do not write nM after it.

// query May I ask what IC50 has been recorded for COc1ccccc1C(Cn1ccnc1)Sc1ccc(C(=O)O)cc1.Cl (centres unmarked) [Compound 70, hydrochloride] ?
// result 73

Next compound, please.
// query May I ask what IC50 has been recorded for Cc1ccccc1C(Cn1ccnc1)Sc1ccc(C(=O)O)cc1 (centres unmarked) [Compound 58, hydrochloride] ?
// result 52
